So I've got a bunch of compounds here, and I need their z-score values.
method.notes: galactose survival enhancers in mitochondrial complex I cybrids – cell-based, galactose medium, ATP luminescence, primary screen (AID 1645843);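 further: positive z means more ATP and so rescue of galactose-driven cybrid death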
run.parameters: complex I mutant cybrid cells, 72 h, stronger effect = higher value
Answers are plain numbers.

Provide reported z-score for each item, in the same order as listed.
1. O=C(Nc1nc2ccccc2n1CCN1CCOCC1)c1cccc([N+](=O)[O-])c1
2. O=C1NC(=O)c2cc(Nc3ccc(F)cc3)c(Nc3ccc(F)cc3)cc21
3. C[C@@H](CN1CCC(n2c(=O)[nH]c3cc(Cl)ccc32)CC1)NC(=O)c1ccc2ccccc2c1
4. CNC(CC(=O)O)C(=O)O (stereo not given)

### Response
1. 1.46
2. -0.645
3. -1.04
4. 0.29

Go through the list and state z-score for each entry.
1. COc1cc2c(cc1OC)C1CC(=O)C(CC(C)C)CN1CC2 (stereo not given)
2. CC(C)c1ccc(C(=O)c2cccs2)c(SCCCCCCCCN(C)C)n1
3. N[C@@H](Cn1ccc(=O)n(Cc2ccccc2C(=O)O)c1=O)C(=O)O
4. N#Cc1cc2[nH]c(=O)c(=O)[nH]c2cc1[N+](=O)[O-]
5. CCCC1CC(C(=O)NC(C(C)Cl)C2OC(SC)C(O)C(O)C2O)N(C)C1 (stereo not given)
6. Cc1cc(Cn2cnc3c2C[C@@H](C(=O)O)N(C(=O)C(c2ccccc2)c2ccccc2)C3)ccc1N(C)C
7. CC(C)n1nnc2cc(C(=O)O)ccc21

### Response
0.245
-1.04
0.025
0.095
-0.495
0.245
0.275

---

method.notes: P. berghei load reduction in hepatocytes – cell-based, HepG2, luciferase luminescence, HepG2 viability, primary screen (AID 624349);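 further: 100% = mean of DMSO negative control wells on the same plate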
run.parameters: P. berghei liver stage in HepG2, luciferase luminescence, concentration not given here; measured here: HepG2 viability without parasites
Could you please report measured viability for the items listed next?
Form entry: enter the amount, then its unit.

>>> value_measured("CC(C)[C@H](CO)Nc1nc(Nc2cc(N)cc(Cl)c2)c2ncn(C(C)C)c2n1")
"101%"
>>> value_measured("O=C1NC(=O)/C(=C/c2ccc3c(c2)OC(F)(F)O3)S1")
"93.8%"
>>> value_measured("O=c1cc(N2CCOCC2)nc2c3ccccc3ccn12")
"94.8%"
>>> value_measured("COc1ccc(CNC(=O)Nc2ncc([N+](=O)[O-])s2)cc1")
"94.6%"

Below are 8 molecules. Give each one its viability.
1. COc1cc2nccc(Oc3ccc(NC(=O)Nc4cc(C)on4)c(Cl)c3)c2cc1OC
2. CN[C@@H]1C[C@H]2O[C@@](C)([C@@H]1OC)n1c3ccccc3c3c4c(c5c6ccccc6n2c5c31)C(=O)N[C@H]4O
3. c1ccc(-c2n[nH]c3c2oc2ccccc23)cc1
4. Nc1cccc(-c2cc3c(Oc4cccc(O)c4)ncnc3[nH]2)c1
5. O=[N+]([O-])c1ccc(-c2nc(-c3ccc(F)cc3)c(-c3ccncc3)[nH]2)cc1
6. CC(C)(C)c1nc2c3cc[nH]c(=O)c3c3cc(F)ccc3c2[nH]1
7. CC(C)(C)[C@]1(O)CCN2C[C@H]3c4ccccc4CCc4cccc(c43)[C@@H]2C1
8. COc1cc2ncnc(Nc3ccc(Oc4ccccc4)cc3)c2cc1OC

### Response
70.1%
61%
103%
64.3%
67.5%
127%
156%
67.6%

For each entry beneath this line, provide reported viability.
1. Cc1cc(C(C)Nc2ccccc2)c2nc(N3CCOCC3)cc(=O)n2c1 (stereo unspecified)
2. COc1ccc(OC)c2c(=S)c3ccccc3[nH]c12
3. c1nc2nc(Nc3ccc(N4CCOCC4)cc3)nc(NC3CCCCC3)c2[nH]1

### Response
62.4%
149%
68.1%

Parameter requested: viability. Apply to each item below.
1. CC(C)c1nn(-c2c(Cl)cccc2Cl)c2nc(Cc3ccc(OCCO)cc3)[nH]c(=O)c12
2. O=c1cc(N2CCOCC2)oc2c1ccc1ccccc12
3. O=C1NC(=O)/C(=C/c2ccc(-c3ccc(F)cc3O)o2)S1
4. CC[C@H](CO)Nc1nc(NCc2ccccc2)c2ncn(C(C)C)c2n1
5. O=C1NC(=O)/C(=C/c2cccc(C(F)(F)F)c2)S1
6. Cc1ccc(O)c(C(CCN(C(C)C)C(C)C)c2ccccc2)c1 (stereo unspecified)

### Response
1. 79.7%
2. 108%
3. 62.9%
4. 68.3%
5. 85%
6. 96.6%
